# assayTarget: UniProt:P27815
# Sequence (P27815 whole entry): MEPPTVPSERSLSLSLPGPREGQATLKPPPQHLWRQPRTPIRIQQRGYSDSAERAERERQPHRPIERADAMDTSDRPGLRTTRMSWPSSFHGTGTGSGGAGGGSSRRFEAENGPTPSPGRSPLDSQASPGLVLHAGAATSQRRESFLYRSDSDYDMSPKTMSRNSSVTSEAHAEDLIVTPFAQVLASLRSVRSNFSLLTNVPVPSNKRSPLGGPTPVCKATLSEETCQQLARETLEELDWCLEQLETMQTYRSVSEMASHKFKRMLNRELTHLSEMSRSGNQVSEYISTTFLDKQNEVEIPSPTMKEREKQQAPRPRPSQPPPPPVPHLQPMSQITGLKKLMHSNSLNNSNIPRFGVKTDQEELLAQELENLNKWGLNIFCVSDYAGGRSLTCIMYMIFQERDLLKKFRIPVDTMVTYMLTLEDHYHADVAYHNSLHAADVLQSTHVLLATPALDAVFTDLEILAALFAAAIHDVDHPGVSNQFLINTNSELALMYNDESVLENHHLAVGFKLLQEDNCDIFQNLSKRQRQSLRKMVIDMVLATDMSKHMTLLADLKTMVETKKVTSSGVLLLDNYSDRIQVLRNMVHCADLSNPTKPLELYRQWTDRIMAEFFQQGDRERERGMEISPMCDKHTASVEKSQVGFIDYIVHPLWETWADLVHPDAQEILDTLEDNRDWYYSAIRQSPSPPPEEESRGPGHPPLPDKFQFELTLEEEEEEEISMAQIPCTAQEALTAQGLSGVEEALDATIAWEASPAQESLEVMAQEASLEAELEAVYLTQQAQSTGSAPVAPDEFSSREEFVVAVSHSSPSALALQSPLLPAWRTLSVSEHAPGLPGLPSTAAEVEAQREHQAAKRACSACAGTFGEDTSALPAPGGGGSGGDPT
pIC50: −log10 of the molar value.
Assign True whenever pIC50 does not fall below 9; assign False whenever it does.

Cc1noc(/C(=C/c2cccc(-c3cc(C(C)C)cc4cccnc34)c2)c2ccc(S(C)(=O)=O)cc2)n1 : True

Read the next record carefully.
Is it the case that CC(C)c1cc(-c2cccc(C(Cc3ccncc3)c3ccc(Cl)cc3)c2)c2ncccc2c1 (stereo not given) has pIC50 reaching or exceeding 9?
False

----------
# procedureSummary: Tmax in rat at 20 mg/kg, po
# Type: ADME, organism-based
# Set-up: dose 20 mg/kg, route oral
# measurementContext: in vivo
resultType: Tmax
Reply with the number, then its unit.

In the examples that follow, each entry is paired with its recorded Tmax.
Cc1noc(/C(=C/c2cccc(-c3cc(C(C)(C)S(C)(=O)=O)cc4cccnc34)c2)c2ccc(S(C)(=O)=O)cc2)n1 : 6 h
Cc1noc(/C(=C/c2cccc(-c3cc(C(C)C)cc4cccnc34)c2)c2ccc(S(C)(=O)=O)cc2)n1 : 0.5 h

For the next question, use this molecule.
Query (molecule): CC(C)NC(=O)/C(=C/c1cccc(-c2cc(C(C)(C)C#N)cc3cccnc23)c1)c1ccc(S(C)(=O)=O)cc1 ; field requested: Tmax
6 h

Origin of measurements: ChEMBL document CHEMBL1141872
